Biological target: BCL1 IgM idiotype
Test: RIA competition on plastic: inhibition of 125I labeled B1 IgG binding to coated BCL1 IgM
Set-up: species or system mouse
Details: synthetic peptides; BCL1 IgM coated on plastic
pIC50: −log10 of the molar value.
measureName: pIC50

For record SVWRWLPYDKYE the listed pIC50 is ~4.22
